- target.of.assay: hmGluR5 (Homo sapiens (Human), UniProt P41594)
- Sequence (P41594 21-1212): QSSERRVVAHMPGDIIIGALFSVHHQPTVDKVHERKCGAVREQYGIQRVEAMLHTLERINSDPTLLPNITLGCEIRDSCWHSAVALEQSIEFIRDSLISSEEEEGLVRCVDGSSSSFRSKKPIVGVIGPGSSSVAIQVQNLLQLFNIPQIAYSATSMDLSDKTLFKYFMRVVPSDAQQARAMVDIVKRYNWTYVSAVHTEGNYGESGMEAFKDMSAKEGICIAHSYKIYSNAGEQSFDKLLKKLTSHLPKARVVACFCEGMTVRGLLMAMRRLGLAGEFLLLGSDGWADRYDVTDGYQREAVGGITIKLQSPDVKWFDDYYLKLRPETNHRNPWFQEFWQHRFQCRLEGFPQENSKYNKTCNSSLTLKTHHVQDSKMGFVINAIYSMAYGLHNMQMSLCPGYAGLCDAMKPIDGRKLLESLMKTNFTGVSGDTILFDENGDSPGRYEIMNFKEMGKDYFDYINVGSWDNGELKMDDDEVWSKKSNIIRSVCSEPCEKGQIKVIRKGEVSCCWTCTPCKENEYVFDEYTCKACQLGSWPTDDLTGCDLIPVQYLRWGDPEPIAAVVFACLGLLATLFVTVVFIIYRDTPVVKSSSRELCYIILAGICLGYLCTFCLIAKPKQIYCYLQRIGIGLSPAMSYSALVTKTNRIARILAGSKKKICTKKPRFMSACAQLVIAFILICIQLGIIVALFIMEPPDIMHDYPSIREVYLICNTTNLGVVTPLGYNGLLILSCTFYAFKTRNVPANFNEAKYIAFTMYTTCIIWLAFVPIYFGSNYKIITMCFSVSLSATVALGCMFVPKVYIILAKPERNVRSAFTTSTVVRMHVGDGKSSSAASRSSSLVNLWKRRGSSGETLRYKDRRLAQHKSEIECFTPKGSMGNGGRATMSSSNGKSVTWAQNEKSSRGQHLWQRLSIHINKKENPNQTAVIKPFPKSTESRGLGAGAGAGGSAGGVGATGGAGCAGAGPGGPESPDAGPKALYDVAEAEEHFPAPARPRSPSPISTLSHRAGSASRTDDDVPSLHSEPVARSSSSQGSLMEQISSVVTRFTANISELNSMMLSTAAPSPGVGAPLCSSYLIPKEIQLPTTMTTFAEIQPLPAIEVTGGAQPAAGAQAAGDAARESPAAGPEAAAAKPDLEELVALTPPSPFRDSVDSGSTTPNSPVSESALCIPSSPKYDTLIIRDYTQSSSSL
- assay.comment: Radioligand binding assay (MPEP binding site)
- cond: radioligand binding to the MPEP site, 5 nM radioligand; Ki by Cheng-Prusoff

# molecule, Ki / µM
records = [
    ("Cc1cccc(NC(=O)C23CCCC(NC(=O)c4cccc(Cl)c4)(CC2)C3)n1 (stereo not drawn)", 0.5),
    ("Cc1cccc(C(=O)NC23CCCC(NC(=O)c4ccncc4)(CC2)C3)c1 (stereo not drawn)", 0.28),
    ("Cc1ncc(C(=O)NC23CCCC(NC(=O)c4cccc(Cl)c4)(CC2)C3)s1 (stereo not drawn)", 0.34),
]
